Items are presented alongside their recorded hCD71:HSA.
assay_target: T1, human CD71 extracellular domain (CD71-ECD) (human, UniProt P02786 89-760)
T1 construct: also called hCD71; human CD71-ECD
T1 sequence (P02786 89-760): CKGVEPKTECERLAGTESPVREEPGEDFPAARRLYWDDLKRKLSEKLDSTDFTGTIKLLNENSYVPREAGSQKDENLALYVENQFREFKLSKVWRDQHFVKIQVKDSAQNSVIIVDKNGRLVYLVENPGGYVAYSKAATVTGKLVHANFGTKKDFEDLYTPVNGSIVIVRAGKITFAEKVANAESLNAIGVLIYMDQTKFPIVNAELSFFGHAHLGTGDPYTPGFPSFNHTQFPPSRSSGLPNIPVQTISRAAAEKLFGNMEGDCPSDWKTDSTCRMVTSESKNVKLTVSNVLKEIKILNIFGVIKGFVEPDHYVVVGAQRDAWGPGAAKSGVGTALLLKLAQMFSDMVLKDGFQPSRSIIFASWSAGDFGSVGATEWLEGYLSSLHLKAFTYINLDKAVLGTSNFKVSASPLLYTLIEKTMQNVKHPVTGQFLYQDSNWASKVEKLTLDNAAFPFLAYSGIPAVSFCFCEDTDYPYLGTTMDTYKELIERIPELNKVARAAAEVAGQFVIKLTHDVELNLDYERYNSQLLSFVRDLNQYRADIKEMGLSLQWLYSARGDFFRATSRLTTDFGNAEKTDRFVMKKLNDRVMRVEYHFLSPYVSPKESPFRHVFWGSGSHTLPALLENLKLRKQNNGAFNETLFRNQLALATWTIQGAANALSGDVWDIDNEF
assay_remarks: primary ELISA, RLU ratio to HSA
property_measured: hCD71:HSA

binder	result
CD71-binding FN3 domain SEQ ID NO: 266 (designed binder) MSLPAPKNLVVSRVTEDSARLSWTAPDAAFDSFFIGYLEPQPPGEAIYLLVPGSERSYDLTGLKPGTEYNVTIQGVKGGFPSLPLVATFTT	150
CD71-binding FN3 domain SEQ ID NO: 306 (designed binder) MSLPAPKNLVVSRVTEDSARLSWTAPDAAFDSFEIGHFENLYLGEAIVLTVPGSERSYDLTGLKPGIEYWVQIGGVKGGVWSVSLSAIFTT	79
CD71-binding FN3 domain SEQ ID NO: 327 (designed binder) MSLPAPKNLVVSRVTEDSARLSWTAPDAAFDSFEIGYWENAYKGEAIVLTVPGSERSYDLTGLKPGTEYWVQIGGVKGGNWSAPLSAIFTT	143
CD71-binding FN3 domain SEQ ID NO: 249 (designed binder) MSLPAPKNLVVSRVTEDSARLSWTAPDAAFDSFEIGYWENAYRGEAIVLTVPGSERSYDLTGLKPGTEYVVFIGGVKGGVWSVPLSAIFTT	350
